# System: TK-10
# test-summary: NCI tumour cell line growth inhibition, 48 h
Active and inactive are the calls of the source. No stated cut-off is given here; in the data, active = GI50 up to about 1.1 µM and inactive = higher.
Labels: active, inactive

INSERT INTO results (compound, class) VALUES
  ('O=[N+]([O-])c1ccc(/C(=C\c2ccccc2)Cn2ccnc2)cc1', 'inactive'),
  ('CC(C)(C)OC(=O)NCC(=O)N(CCc1ccc(Cl)c(Cl)c1)CCN1CCCC1', 'inactive'),
  ('Oc1cc(-c2c[nH]c3ccccc23)nc2cc3c(cc12)OCO3', 'inactive'),
  ('CCC1CCN/C(=N/S(=O)(=O)c2cc(C)c(Cl)cc2S)N1 (configuration not stated)', 'inactive'),
  ('C=C1C[C@]23C[C@@]1(O)CC[C@H]2[C@@]12C=C[C@H](O)[C@@](C)(C(=O)O1)[C@H]2[C@@H]3C(=O)O', 'inactive'),
  ('CCCCNC(=O)Nc1c(C(N)=O)c2n(c1C(=O)OCC)CCCCC2', 'inactive'),
  ('CC(C)(C)C1CCC2(CC1)c1[nH]c3ccccc3c1C1(CCC(C(C)(C)C)CC1)c1[nH]c3ccccc3c12 (configuration not stated)', 'inactive'),
  ('O=C1Oc2ccccc2N/C1=C/C(=O)c1ccc([N+](=O)[O-])cc1', 'inactive'),
  ('O=C(c1ccccc1)c1c(CC(O)c2cccnc2)n(C(=O)c2ccccc2)c2ccccc12 (configuration not stated)', 'inactive'),
  ('CC1(O)C(C)(O)C(C)(O)C1(C)O (configuration not stated)', 'inactive'),
  ('Cc1cc2nc3c(N)nn(CCN(C)C)c3nc2cc1C', 'inactive'),
  ('S=c1nc2c(c[nH]1)C1c3ccccc3C2c2ccccc21', 'inactive'),
  ('OCCc1ccsc1-c1sc(-c2cc(CCO)c(-c3sc(-c4cc(CCO)c(-c5sccc5CCO)s4)cc3CCO)s2)cc1CCO', 'inactive'),
  ('Cc1nc(-c2nc([N+](=O)[O-])c([N+](=O)[O-])[nH]2)cs1', 'inactive'),
  ('Cn1c(O)c(C2=Nc3ccccc3C2=O)c2ccccc21', 'inactive'),
  ('CC(C)=CCC[C@@H](C)C1=C(N)C(=O)C(C)=C(O)C1=O', 'inactive'),
  ('Cc1c(-c2ccccc2)c(C#N)c2nnn(-c3ccccc3)c(=O)n12', 'inactive'),
  ('CC1NOC(=O)C1/N=N/c1ccccc1Cl (configuration not stated)', 'inactive'),
  ('CNC(C)Cc1ccc(O)cc1 (configuration not stated)', 'inactive'),
  ('CC1(COS(=O)(=O)OCC2(C)COS(=O)(=O)OC2)COS(=O)(=O)OC1', 'inactive'),
  ('COc1cc(/C=C2\CCC(C)(CN(C)C)C2=O)cc(OC)c1OC (configuration not stated)', 'inactive'),
  ('COc1cc2ccc3c4c(OC)cc(OC)c(OC)c4c([O-])[n+](C)c3c2cc1OC', 'inactive'),
  ('Cc1c(-c2nc3ccccc3[nH]2)c(=O)n(-c2ccccc2)n1C', 'inactive'),
  ('Cn1cc(-c2ccc3c4ccccc4n(C)c3c2)c2ccccc21', 'inactive'),
  ('c1ccc2c(c1)ncn2CCn1ccnc1', 'inactive'),
  ('O=C1Nc2ccc(Br)cc2/C1=N/Nc1ccc([N+](=O)[O-])cc1[N+](=O)[O-]', 'inactive'),
  ('CCOC(=O)CSc1cc[nH]c(=O)n1', 'inactive'),
  ('NCCCC[C@H](N)C(=O)Nc1ccc(-c2nc3ccccc3s2)cc1Cl', 'active'),
  ('Oc1cccc2nc3cc(CN4CCOCC4)c(CN4CCOCC4)cc3nc12', 'inactive'),
  ('NCCCN1CCN(CC(=O)O)CCN(CCCN)CCN(CC(=O)O)CC1', 'inactive'),
  ('Cc1ccc(S(=O)(=O)N2CCN(S(=O)(=O)c3ccc(C)cc3)CCN(S(=O)(=O)c3ccc(C)cc3)Cc3cc(C#N)c(C#N)cc3CN(S(=O)(=O)c3ccc(C)cc3)CC2)cc1', 'inactive'),
  ('c1ccc(N2N=C(c3ccco3)CC2c2ccco2)cc1 (configuration not stated)', 'inactive');
